# maps each entry to its positive mice, percentage
- Test system: islet-infiltrating CD8+ T cells of NOD mice
- Method: IFN-γ recall assay of islet-infiltrating cells against peptide-pulsed K^d+ L cells
- Type: cell-based
- Measurement Context: 12-16-week-old NOD females; positive = IFN-γ^+CD8^+ cells >1.8%

Recorded results for 5 substances are shown here.
[[record]]
substance = "VFSCLNTAL [Ucn3 32-40, peptide derived from murine Ucn3, predicted to be restricted by K^d]"
recorded_metric = "positive mice, percentage"
reported = "67%"

[[record]]
substance = "GYRDINEIDI [Pcsk2 109-118, peptide derived from murine Pcsk2, predicted to be restricted by K^d]"
recorded_metric = "positive mice, percentage"
reported = "50%"

[[record]]
substance = "RYLEHVQAVI [Pcsk2 501-510, peptide derived from murine Pcsk2, predicted to be restricted by K^d]"
recorded_metric = "positive mice, percentage"
reported = "63%"

[[record]]
substance = "LYDESCSSTL [Pcsk2 341-350, peptide derived from murine Pcsk2, predicted to be restricted by K^d]"
recorded_metric = "positive mice, percentage"
reported = "75%"

[[record]]
substance = "IGRP 206-214: positive control peptide in NOD recall assay (VYLKTNVFL; UniProt Q9Z186 206-214, looked up, fragment) [reference compound]"
recorded_metric = "positive mice, percentage"
reported = "100%"


Please look at the following substance next.
Respond only with positive mice, percentage recorded for TYFLLPLLL [Ucn3 5-13, peptide derived from murine Ucn3, predicted to be restricted by K^d]
67%
